system under test: T1, ARHGAP21, Q5T5U3
T1 sequence (Q5T5U3 45-169, limits assumed, looked up): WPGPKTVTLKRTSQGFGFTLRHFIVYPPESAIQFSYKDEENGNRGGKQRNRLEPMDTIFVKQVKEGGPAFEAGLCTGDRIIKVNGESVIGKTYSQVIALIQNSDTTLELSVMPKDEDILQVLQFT
protocol details: holdup assay
Parameters: key: below the threshold = too weak to quantify, mostly under pKd 3.1 to 4
assay context: plain residues with an end cap or a label only (N-terminal biotin on a linker: ado-ado)
experimental endpoint: pKd

Below, 5 binders whose answers are already recorded.
SAAKVLTSMC [GHRHR, Q02643] | below the threshold
QGPVETESVV [SLC45A4, Q5BKX6] | 4.14
EVNETDDTKM [KCNJ1, P48048] | 3.96
KKAPTNEFYA [SDC4, P31431] | below the threshold
FNSYSLTGYV [CLDN2, P57739] | 3.94

QUERY: Please look at this binder and report its pKd: GQEEQVTTRL [TRPC5, Q9UL62]
RESULT: 4.07
